# Tested on: U251 CNS
# assay: NCI-60 one-dose screen, 48 h
# conditions: 10 µM unless noted
About 83,000 compounds went through this panel and 20% of them were active in at least one assay; those are over-represented in the sample as a whole. The source made the active and inactive calls. The calls were made as follows: active = growth percent below 10; inactive = the rest.
Select the correct class. Options are active, inactive and nothing else.

Please share the test call associated with O=C(NC(Cc1nnc2n(Cc3ccccc3)c(=O)c3c4c(sc3n12)CCCC4)c1ccc(Cl)cc1)c1ccccc1 (centres undefined) .
inactive

Please share the test call associated with CC(C)(C)CC(C)(C)Nc1c(-c2ccncc2)nc2cnccn12 .
inactive

Please share the test call associated with N/C(=N\c1nc2ccccc2s1)NC(=O)Nc1cccc(Cl)c1 .
inactive

Please share the test call associated with C=CCn1c(C)nc2cc(Nc3nc(N4CCCC4)nc4ccccc34)ccc21 .
inactive

Please share the test call associated with O=c1ssc(Cl)c1-c1ccccc1 .
inactive

Please share the test call associated with CCc1c2c(nc3ccc(OC(=O)NCc4ccc(B5OC(C)(C)C(C)(C)O5)cc4)cc13)-c1cc3c(c(=O)n1C2)COC(=O)[C@]3(O)CC .
active

Please share the test call associated with O=C1C=C[C@]2(C[C@@H](c3cccc(C(F)(F)F)c3)O[C@@H](c3cccc(C(F)(F)F)c3)O2)O1 .
inactive

Please share the test call associated with COC(=O)[C@]12CC[C@@H](C)[C@H](C)[C@@H]1C1=CC[C@@H]3[C@@]4(C)C(C=O)=C[C@@](C)(COC(C)=O)[C@@H]4[C@H](O)C[C@@]3(C)[C@]1(C)CC2 .
active

Please share the test call associated with CC(=O)[C@@H]1CC[C@]2(COS(=O)(=O)c3ccc(C)cc3)CC[C@]3(C)[C@H](CC[C@@H]4[C@@]5(C)CCCNC(C)(C)[C@@H]5CC[C@]43C)[C@@H]12 .
inactive

====

# Test system: RPMI-8226 leukemia
# assay: NCI-60 one-dose screen, 48 h (100 = growth as untreated, 0 = no growth, -100 = all killed)
# conditions: 10 µM unless noted
About 83,000 compounds went through this panel and 20% of them were active in at least one assay; those are over-represented in the sample as a whole.
Exercise: state measured growth for each of the compounds provided.
Lab book: enter the figure in %, no units written.

What does the record list as growth for COc1cc2c(cc1-c1c(C)noc1C)ncc1nc(C3CCC(F)(F)CC3)n(C3CCC(OC(F)F)CC3)c12 (centres undefined) ?
20

What does the record list as growth for CN1CCN(CCCOc2ccc3nc(Nc4ccc(F)c(F)c4)ccc3c2)CC1 ?
28.8

What does the record list as growth for Cc1c(C(=O)NC(Cc2ccccc2)C(O)C(=O)NCc2ccc(F)cc2)[nH]c2ccccc2c1=O (centres undefined) ?
105

What does the record list as growth for CC/C=C/C/C=C/C/C=C/C/C=C/C/C=C/C/C=C/CCC(=O)Nc1ccn([C@@H]2O[C@H](CO)[C@@H](O)C2(F)F)c(=O)n1 ?
28.1

What does the record list as growth for NS(=O)(=O)c1ccc(-n2nc(C(=O)N/N=C\c3ccc(F)cc3)cc2-c2ccc(Cl)cc2)cc1 ?
104

What does the record list as growth for O=C(Nc1ccc(-n2cc(-c3ccncc3)c(-c3ccc(Cl)c(O)c3)n2)cc1)N1CCOCC1 ?
106

What does the record list as growth for CCCCCCCCCOc1c(OC)cc(C2CC(=O)Nc3c2c(C)nn3-c2nc3ccccc3[nH]2)cc1OC (centres undefined) ?
10.1

What does the record list as growth for O=S(=O)(Nc1cccc(Cl)c1)c1ccc(-c2cnc(C3CC3)o2)cc1 ?
17.8

What does the record list as growth for COc1ccc(OC)c2c1[nH]c(=O)c1c3ncccc3cn21 ?
30.1
